# system_under_test: Corticotropin-releasing factor receptor 2/Corticotropin-releasing factor-binding protein (Homo sapiens, UniProt P24387+Q13324)
# Sequence (Q13324 whole entry): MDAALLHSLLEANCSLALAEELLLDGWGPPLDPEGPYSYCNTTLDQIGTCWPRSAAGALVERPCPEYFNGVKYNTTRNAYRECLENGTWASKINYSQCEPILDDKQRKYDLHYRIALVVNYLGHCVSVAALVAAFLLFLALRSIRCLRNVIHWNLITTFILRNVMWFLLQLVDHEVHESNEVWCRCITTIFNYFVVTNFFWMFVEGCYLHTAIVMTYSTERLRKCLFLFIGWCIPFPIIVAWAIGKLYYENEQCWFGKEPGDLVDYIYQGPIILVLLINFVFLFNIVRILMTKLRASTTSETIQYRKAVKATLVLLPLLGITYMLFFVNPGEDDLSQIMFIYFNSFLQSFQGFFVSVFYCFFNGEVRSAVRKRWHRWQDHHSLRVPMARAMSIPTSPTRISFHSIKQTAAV
# Sequence (P24387 whole entry): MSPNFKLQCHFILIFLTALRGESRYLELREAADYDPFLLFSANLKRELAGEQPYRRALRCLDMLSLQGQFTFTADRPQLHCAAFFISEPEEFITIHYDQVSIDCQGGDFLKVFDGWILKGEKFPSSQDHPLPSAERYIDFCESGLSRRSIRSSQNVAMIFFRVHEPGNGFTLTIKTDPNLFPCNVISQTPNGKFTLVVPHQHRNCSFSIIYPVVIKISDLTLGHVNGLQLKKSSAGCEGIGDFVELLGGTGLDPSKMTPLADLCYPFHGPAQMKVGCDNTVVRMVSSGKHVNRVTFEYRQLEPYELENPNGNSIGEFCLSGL
# test_protocol: Dose Response confirmation of uHTS hits for small molecule antagonists of the CRF-binding protein and CRF-R2 receptor complex.
# Assay type: functional
# applied_conditions: read-out: IC50_Mean
Active and inactive are the calls of the source. No stated cut-off is given here; in the data, actives have a measured IC50 and inactives only a lower limit.
Permitted responses: active, inactive

// query Answer briefly: the call reported for Cc1ccc(CNC(=O)c2cc(-c3ccccc3C)n(CC3CC(c4cccc([N+](=O)[O-])c4)=NO3)n2)cc1 (stereo unspecified) in this assay.
// result inactive

// query Called result for CC(Sc1nnnn1-c1ccccc1)C(=O)Nc1ccccc1-c1ccccc1 (stereo unspecified)
// result inactive

// query Outcome? "COc1ccc(NC(=O)c2c(F)cccc2F)cc1S(=O)(=O)Nc1ccc(Br)cc1"
// result active

// query Any idea what this test logged for CC1=CN2C(=NC(=O)CC2(C)C(=O)N(CC(=O)NC2CCCC2)c2ccccc2C)C=C1 (stereo unspecified) ?
// result inactive

// query Assay result, entry CC(C)CN1CCN(Cc2cccc3nccnc23)CC1CCO (stereo unspecified) — outcome?
// result inactive

// query For "CCCC12CN(C(=O)c3ccc([N+](=O)[O-])cc3)CC(C)(CN(C(=O)c3ccc([N+](=O)[O-])cc3)C1)C2=O" , what call appears in the results of this test?
// result inactive

// query // param item: "COc1ccccc1-n1cnnc1SCC(=O)NCc1cccs1" ; yields the recorded call
// result inactive

// query Outcome logged for "Oc1[nH]ncc1/C=N/c1ccc(Cl)cc1" in this assay:
// result inactive

// query Assay outcome for "CCOC(=O)c1sc(NC(=O)CSc2n[nH]c(-c3ccncc3)n2)c(C#N)c1C" : what was it?
// result active

// query Kindly provide the recorded test outcome for the following molecule: "Cc1ccc(C)c(NC(=O)Cn2cnc3c(oc4ccccc43)c2=O)c1"
// result inactive

// query Per the records of this test, what outcome belongs to "CC(C)c1cc(C(F)(F)F)nc(NNc2nc(C(C)C)cc(C(F)(F)F)n2)n1" ?
// result active
